ASSAY EXPLANATION: Pharmacokinetics after intraperitoneal injection in mice
Format: in vivo
RECORDED CONDITIONS: mouse, ip; brain; intraperitoneal injection in mice
MEASUREMENT NAME: Tmax (min)
Report the figure in min without appending any unit label.

Value of measured Tmax for the entry CC[C@@]1(O)C(=O)OCc2c1cc1n(c2=O)Cc2cc3c(CN(C)C)c(O)ccc3nc2-1 [topotecan] : 30

###

ASSAY EXPLANATION: Pharmacokinetics after intraperitoneal injection in mice
Assay type: in vivo
RECORDED CONDITIONS: mouse, ip; plasma; intraperitoneal injection in mice
MEASUREMENT NAME: AUC(0-t)
// return the numeric value with its unit appended

Value of measured AUC(0-t) for the entry CC[C@@]1(O)C(=O)OCc2c1cc1n(c2=O)Cc2cc3c(CN(C)C)c(O)ccc3nc2-1 [topotecan] : 3280 ng·h/mL
